Provenance of the data: patent US11083725B2

System: NHBE cells
Assay: Biolog metabolic array: substrate use by NHBE cells with or without CA09 infection
Format: cell-based, human
Details: Virus: CA09-infected NHBE cells, MOI 1; Biolog PMM2; 9 hr
The threshold is 4. Values of 590 nm absorbance normalized to zero hour (substrate use), 9 hr beneath it are tagged condition met; values meeting or exceeding it are tagged condition not met.

# TODO verify 590 nm absorbance normalized to zero hour (substrate use), 9 hr < 4 strictly for this molecule: CC(O)C(=O)O (stereo not shown)
condition met

# TODO verify 590 nm absorbance normalized to zero hour (substrate use), 9 hr < 4 strictly for this molecule: O=c1[nH]cnc2c1ncn2[C@@H]1O[C@H](CO)[C@@H](O)[C@H]1O
condition not met

# TODO verify 590 nm absorbance normalized to zero hour (substrate use), 9 hr < 4 strictly for this molecule: COC(=O)CCC(=O)O [Mono Methyl Succinate]
condition met

# TODO verify 590 nm absorbance normalized to zero hour (substrate use), 9 hr < 4 strictly for this molecule: OC[C@H]1O[C@@H]2O[C@H]3[C@H](O)[C@@H](O)[C@@H](O[C@H]4[C@H](O)[C@@H](O)[C@@H](O[C@H]5[C@H](O)[C@@H](O)[C@@H](O[C@H]6[C@H](O)[C@@H](O)[C@@H](O[C@H]7[C@H](O)[C@@H](O)[C@@H](O[C@H]1[C@H](O)[C@H]2O)O[C@@H]7CO)O[C@@H]6CO)O[C@@H]5CO)O[C@@H]4CO)O[C@@H]3CO
condition not met

# TODO verify 590 nm absorbance normalized to zero hour (substrate use), 9 hr < 4 strictly for this molecule: O=C(O)CC(CC(=O)O)C(=O)O
condition met

# TODO verify 590 nm absorbance normalized to zero hour (substrate use), 9 hr < 4 strictly for this molecule: CC(O)CO (stereo not shown)
condition not met

# TODO verify 590 nm absorbance normalized to zero hour (substrate use), 9 hr < 4 strictly for this molecule: O=C[C@H](O)[C@@H](O)[C@H](O)[C@H](O)CO [D-(+)-Glucose]
condition not met

# TODO verify 590 nm absorbance normalized to zero hour (substrate use), 9 hr < 4 strictly for this molecule: O=C(CO)[C@@H](O)[C@H](O)[C@H](O)COP(=O)(O)O [D-Fructose-6-Phosphate]
condition met

# TODO verify 590 nm absorbance normalized to zero hour (substrate use), 9 hr < 4 strictly for this molecule: OC[C@@H]1OC(O)[C@@H](O)[C@H](O)[C@H]1O (stereo partly shown)
condition met

# TODO verify 590 nm absorbance normalized to zero hour (substrate use), 9 hr < 4 strictly for this molecule: O=C(O)CCCO [g-Hydroxy-Butyric Acid]
condition met
